Tested on: SF-539 CNS
Experiment: NCI tumour cell line growth inhibition, 48 h
propertyName: TGI

In the examples that follow, each entry is paired with its recorded TGI.
1) NS(=O)(=O)c1nnc(NS(=O)(=O)c2ccccc2[N+](=O)[O-])s1    > 100 µM
2) C/C(O)=C(\C=N\C(=S)N=Nc1c(O)[nH]c2ccccc12)C(=O)Nc1ccccc1C    > 100 µM
3) COC(=O)[C@H](Cc1cn(C)cn1)NC(=O)[C@H](CC(=O)OCc1ccccc1)NC(=O)Nc1cc(C(F)(F)F)cc(C(F)(F)F)c1    25.6 µM

q: // TGI lookup, key: COC(=O)[C@]12CC[C@@H](C)[C@H](C)[C@@H]1C1=CC[C@@H]3[C@@]4(C)C(C=O)=C[C@@](C)(CO)[C@@H]4[C@H](O)C[C@@]3(C)[C@]1(C)CC2
a: 22.8 µM

q: Field entry: O=S1(=O)c2ccccc2N(c2ccccc2)c2nnnn21
a: 35.7 µM

---

Below, each entry is listed alongside its reported TGI.
Tested on: UO-31 renal
Assay: NCI tumour cell line growth inhibition, 48 h

In the examples that follow, each entry is paired with its recorded TGI.
1) C[C@@H](Nc1cc(F)cc(F)c1)c1cc(C(=O)N(C)C)cc2c(=O)cc(N3CCOCC3)oc12    > 100 µM
2) O=C1Nc2ccc(Br)cc2/C1=N/S(=O)(=O)O    > 100 µM
3) Brc1ccccc2cc(-c3ccccc3)nc1-2    25.5 µM
4) O=C(/C=C/c1ccc(Cl)c(Cl)c1)c1ccccc1Cl    27.8 µM
5) O=C(O)c1ccc2c(c1)C(=O)N(c1ccc(S(=O)(=O)c3ccc(N4C(=O)c5ccc(C(=O)O)cc5C4=O)cc3)cc1)C2=O    > 100 µM
6) COc1ccc(CN2C(=O)[C@@H]3Cc4c(OC)c(C)c(OC)c(OC)c4[C@H](/C2=C\c2cc(OC)c(OC)c(C)c2OC)N3C(=O)OC(C)C)cc1    > 100 µM
7) COC(=O)C1=CC2C(=O)OC1C1C(=O)NC(=O)C21 (centres undefined)    > 100 µM
8) O=C(Nc1ccncc1)C(=O)c1cn(S(=O)(=O)c2cccc(Cl)c2)c2ccccc12    > 100 µM
9) Cn1c(=O)c2ccccc2[n+]2c(-c3cccc([N+](=O)[O-])c3)csc12    > 100 µM
10) O=C(NN1C(=O)CS(=O)(=O)C1c1ccc(Cl)c(Cl)c1)c1ccncc1 (centres undefined)    > 100 µM

q: // TGI lookup, key: O=C(O)CCC(NC(=O)c1ccc(Nc2cnc3cc(C(F)(F)F)ccc3n2)cc1)C(=O)O (centres undefined)
a: > 100 µM

q: Field entry: COc1cc(C(=O)/C=C/c2cc(-c3ccc4c(c3)OCO4)n[nH]2)cc(OC)c1OC
a: 2.67 µM

q: Field entry: O=C(Oc1ccccc1)N(c1ccccc1)c1ccccc1
a: > 100 µM

q: Field entry: CCCCC(=O)/C=c1/cc(C)[nH]c2cccc3cnn1c32
a: > 100 µM

q: Field entry: CCN(CC)CCNc1ccc2ncn3c4ccc(OC)cc4c(=O)c1c23
a: 11.8 µM

q: Field entry: COC(=O)C1(C(=O)OC)N=C(C)OC1c1ccccc1O (centres undefined)
a: > 100 µM

q: Field entry: Cc1ccccc1NC(=O)Cc1nc2ccccc2s1
a: 23.7 µM

q: Field entry: CC(=O)[O-].CC(=O)[O-].O=C(N/N=C/c1cc(Cl)cc(Cl)c1[OH2+])c1ccncc1.[Mn+2]
a: 18.6 µM

---

System: MCF7 breast
Experiment: NCI tumour cell line growth inhibition, 48 h
Below, each entry is listed alongside its reported log10 of TGI.
Hi team, quick reminder: these entries are log10 of TGI (µM).

1. COc1cc(-c2nn(-c3ccc(NC(=O)Nc4cc(C(F)(F)F)cc(C(F)(F)F)c4)cc3)cc2-c2ccncc2)ccc1Cl    0.95

q: What is its log10 of TGI for MCF7 breast? Entry: COc1cc(C(=O)/C=C/c2cc(-c3ccc4c(c3)OCO4)n[nH]2)cc(OC)c1OC
a: 0.46

q: Field entry: CC(C)c1oc(=O)cc2c1C(O)C1OC(=O)C3(C)C(O)C4OC4C2(C)C13 (centres undefined)
a: 0.72

q: Field entry: Nc1[nH]nc2nc(-c3cc(Cl)ccc3Cl)cc(-c3ccc(F)cc3)c12
a: 1.57

q: Field entry: O=C1Nc2ccc(Br)cc2/C1=N/S(=O)(=O)O
a: 1.60

q: Field entry: COc1cc(OCc2ccccc2)c2c(CCC(=O)O)cc(=O)oc2c1 (tested in a mixture with another compound)
a: 1.79

---

Test system: OVCAR-3 ovarian
Assay: NCI tumour cell line growth inhibition, 48 h
Where a SMILES comes first, the peptide text is derived from it. [ ]: non-standard residue; d: D form. ΔPro = O=C(O)[CH]1C=CCN1
Below, each entry is listed alongside its reported TGI.

In the examples that follow, each entry is paired with its recorded TGI.
1) O/N=C(\CC(O)(C(F)(F)F)C(F)(F)F)c1cccs1    > 10 µM
2) C=C(C)[C@H]1CC[C@@]23O[C@@H]2[C@@H](C[C@@]2(C)CC(=O)[C@H](CC(=O)C1)O2)OC(=O)[C@@]12CC[C@H](C(=C)C)CC(=O)C[C@H]4O[C@](C)(CC4=O)C[C@@H](OC3=O)[C@@H]1O2    > 100 µM
3) CCC12C=CCN(CCc3c([nH]c4ccccc34)/C=C\1)C2 (stereo not given)    > 100 µM
4) Cc1sc(C(=O)c2cncnc2N[C@@H]2C[C@H](COS(N)(=O)=O)[C@@H](O)C2)cc1[C@@H]1NCCc2ccc(Cl)cc21    21.7 µM
5) CSC1=NN(C(C)=O)C(C(OC(C)=O)C(OC(C)=O)C(OC(C)=O)C(COC(C)=O)OC(C)=O)S1 (stereo not given)    > 100 µM
6) O=C(O)CCC(c1ccccc1)(c1ccccc1)c1ccccc1    > 69.6 µM

q: // TGI lookup, key: O=Cc1ccc2ccocc1-2
a: > 100 µM

q: Field entry: N#C/C(=C\c1c(O)cc(O)cc1O)C(N)=O
a: > 100 µM

q: Field entry: CCCC(=O)OCC1OC(n2cc(F)c(=O)[nH]c2=O)CC1O (stereo not given)
a: > 10 µM

q: Field entry: Cc1nc2nc(C)n(CCN3CCOCC3)c(=O)c2c(-c2cccc([N+](=O)[O-])c2)c1C(=O)CCCCCCCCCCN1CCC(c2ccccc2)(c2ccccc2)CC1
a: 4.19 µg/mL

q: Field entry: CC(=Nc1ccc(N(C)C)cc1)c1ccccc1
a: 32.2 µM

q: Field entry: O=C(Nc1nc(-c2ccc(Cl)cc2)cs1)c1cc(O)c(O)c(O)c1
a: 1080 µM

q: Field entry: Nc1ccccc1C#C/C=C\C#Cc1ccccc1C#CCO
a: 18.5 µM

q: Field entry: O=C(O)C1C=CCN1C(=O)C1C=CCN1C(=O)C1C=CCN1 (stereo not given) (H-[ΔPro]-[ΔPro]-[ΔPro]-OH; configuration not given here)
a: > 100 µM

q: Field entry: COc1ccc(CN2C(=O)[C@@H]3Cc4c(OC)c(C)c(OC)c(OC)c4[C@H](/C2=C\c2cc(OC)c(OC)c(C)c2OC)N3C(=O)OC(C)C)cc1
a: > 100 µM

q: Field entry: Nc1cccc2c1-c1c(cccc1[N+](=O)[O-])C2=O
a: > 100 µM

q: Field entry: CN(C)NC1=C([N+](=O)[O-])C=NN(c2ccccc2)C1
a: 3.29 µM

q: Field entry: Cc1cc(N2CCOCC2)nc2ccc(Cc3ccc4nc(N5CCOCC5)cc(C)c4c3)cc12
a: > 100 µM

q: Field entry: CCCCC(=O)/C=c1/cc(C)[nH]c2cccc3cnn1c32
a: > 100 µM

q: Field entry: CC[C@H](C)[C@@H]([C@@H](CC(=O)N1CCC[C@H]1[C@H](OC)[C@@H](C)C(=O)NCCc1ccccc1)OC)N(C)C(=O)C(NC(=O)[C@H](C(C)C)N(C)C)C(C)C (stereo not given in full)
a: 0.000544 µM

---

Tested on: MALME-3M melanoma
Test: NCI tumour cell line growth inhibition, 48 h
Below, each entry is listed alongside its reported TGI.

1. N#C/C(=C\c1cc(O)c(O)c(O)c1)C(N)=O    > 100 µM

q: What is its TGI for MALME-3M melanoma? Entry: Brc1ccccc2cc(-c3ccccc3)nc1-2
a: 20.4 µM

q: Field entry: Cc1ccc(Sc2ccccc2C23OC(C)(C4C(=O)N(c5ccccc5)C(=O)C42)N(C)C3=O)cc1 (stereo not given)
a: > 100 µM

q: Field entry: Clc1cccc(-c2nc3cccc4c3n2Cc2ncccc2-4)c1
a: > 100 µM
